Below, each entry is listed alongside its reported IC50.
# System: Colo205
# Method Description: Proliferation inhibition, Wnt mutant cell line Colo205
# Assay type: cell-based
# Experimental Context: Homo sapiens, COLO 205; Colo205, Wnt pathway-dependent, 96 hours; read-out: Antiproliferative IC50 Colo205
Value Type: IC50 (nM)

> print(dat)
                           substance.smiles  target.desc  value.type  numeric.value
1  C[C@H]1Cn2ccc3nc(NCc4cnn(Cc5ccc(F)cc5)c4)nc(c32)N1C      Colo205        IC50            5.5
2  CC(C)N1C[C@H](C)n2ccc3nc(NCc4cnn(Cc5ccc(C(F)(F)F)nc5)c4)nc1c32      Colo205        IC50             16
3  C[C@H]1Cn2c(C(F)F)cc3nc(NCc4cnn(Cc5ccc(C(F)(F)F)nc5)c4)nc(c32)N1C      Colo205        IC50             22
4  CCn1nc(C(F)(F)F)cc1Oc1ccc(CNc2nc3c4c(n2)N(C)[C@@H](C)C(=O)N4CCC3)cn1      Colo205        IC50            2.7
5  [2H]C([2H])([2H])N1c2nc(NCc3ccc(Oc4cc(C(F)(F)F)nn4CC)nc3)nc3c2N(CCC3)C(=O)[C@@H]1COC      Colo205        IC50            3.6
6  C[C@H](O)[C@@]1(C)C(=O)N2CCCc3nc(NCc4ccc(Oc5ccc(C(F)(F)F)nc5)nc4)nc(c32)N1C      Colo205        IC50           28.3

###

# System: Colo205
# Method Description: Proliferation inhibition, Wnt mutant cell line Colo205
# Type: cell-based
# Experimental Context: Homo sapiens, COLO 205; Colo205, Wnt pathway-dependent, 96 hours; read-out: Antiproliferative IC50 Colo205
Each item that follows carries a reported IC50.
Value Type: IC50 (nM)

> print(dat)
                            substance.smiles  value.type  value.relation.sign  numeric.value
 1  C[C@H]1C(=O)N2CCCc3nc(NCc4ccc(Oc5cc(C(F)(F)F)nn5C5CC5)nc4)nc(c32)N1C        IC50                    <            0.5
 2  [2H]C([2H])([2H])N1c2nc(NCc3ccc(Oc4ccc(C(F)(F)F)nc4)nc3)nc3c2N(CCC3)C(=O)[C@@H]1CC(F)(F)F        IC50                    =            1.4
 3  C[C@H]1C(=O)N2CCCc3nc(NCc4ccc(Oc5ccc(C6CC6)nc5)nc4)nc(c32)N1C        IC50                    =            138
 4  Cc1cn2c3c(nc(NCc4cnn(Cc5ccc(F)cc5)c4)nc13)N(C)[C@@H](C)C2        IC50                    =           43.5
 5  [2H]C([2H])([2H])N1c2nc(NCc3ccc(Oc4cnc(C(F)(F)F)nc4)nc3)nc3c2N(CCC3)C(=O)[C@]1(C)CO        IC50                    =             43
 6  COc1nc(C(F)(F)F)ccc1Oc1ccc(CNc2nc3c4c(n2)N(C)[C@@](C)(CO)C(=O)N4CCC3)cn1        IC50                    =              4
 7  C[C@@H](F)[C@H]1C(=O)N2CCCc3nc(NCc4ccc(Oc5ccc(C(F)(F)F)nc5)nc4)nc(c32)N1C        IC50                    =             15
 8  CCN1c2nc(NCc3ccc(Oc4cnc(C(F)(F)F)nc4)nc3)nc3c2N(CCC3)C(=O)[C@@H]1C1CC1        IC50                    =             16
 9  C[C@H]1CN(C)c2nc(NCc3cnn(Cc4ccc(C(F)(F)F)nc4)c3)nc3ccn1c23        IC50                    =              8
10  CC(C)[C@H]1C(=O)N2CCCc3nc(NCc4ccc(Oc5ccc(C(F)(F)F)nc5)nc4)nc(c32)N1C        IC50                    =            3.4
11  C[C@H](F)[C@H]1C(=O)N2CCCc3nc(NCc4ccc(Oc5ccc(C(F)(F)F)nc5)nc4)nc(c32)N1C        IC50                    =            9.1
12  CC(C)[C@H]1C(=O)N2CCCc3nc(NCc4ccc(Cn5ccc(C(F)(F)F)n5)nc4)nc(c32)N1C        IC50                    =             27

From: patent US12622917B2
